Tested on: SK-MEL-28
Assay: NCI tumour cell line growth inhibition, 48 h
Activity calls are given as the source filed them. Cut-off read from the data, not from the text of the source: active = GI50 up to about 1.1 µM and inactive = higher.
Please answer using one outcome listed in 1 (active), 0 (inactive)

Known results for molecules:
{"molecule": "Cn1c(=O)c2ccccc2c2nc3ccccc3nc21", "system.name": "SK-MEL-28", "category.label": 0}
{"molecule": "CN(CC(=O)O)Cc1oc(CO)cc(=O)c1O", "system.name": "SK-MEL-28", "category.label": 0}

Challenge: Hello, I am checking results. What call was entered for `Cc1c(C#N)c2nnn(-c3ccc(Cl)cc3)c(=O)n2c1-c1ccccc1` ?
Response given: 0

Challenge: `CC(=O)Oc1c(OC(C)C)cc(=O)n2ccsc12` ?
Response given: 0

Challenge: `CN1CCC/C1=N\C#N` ?
Response given: 0

Challenge: `COC(=O)C1=NN2c3ccccc3CN([C@@H](C)c3ccccc3)C(=O)[C@H]2[C@@H]1C` ?
Response given: 0

Challenge: `O=C1c2ccccc2S(=O)(=O)c2ccccc21` ?
Response given: 0

Challenge: `N#Cc1ccc(Oc2nc3ccc(C(F)(F)F)cc3nc2-c2ccccc2)cc1` ?
Response given: 0

Challenge: CC1CN1C(=O)NCCCCCCNC(=O)N1CC1C (stereo not given) ?
Response given: 0

Challenge: `N#CCc1nc(Cc2ccccc2)n[nH]1` ?
Response given: 0

====

System: MDA-MB-435
Test: NCI tumour cell line growth inhibition, 48 h
Activity calls are given as the source filed them. No stated cut-off is given here; in the data, active = GI50 up to about 1.1 µM and inactive = higher.
Please answer using one outcome listed in Yes = active, No = inactive

Known results for compounds:
{"compound": "C=C(Br)CN(C#N)CC(=C)Br", "category.label": "No"}
{"compound": "Nc1ccc(Cn2ccc3c4c(N)nc(N)nc4ccc32)cc1", "category.label": "Yes"}
{"compound": "CC(NNC(=O)c1cc[n+]([BH2-]C#N)cc1)c1cccc(F)c1 (centres undefined)", "category.label": "No"}

Challenge: Hello, I am checking results. What call was entered for COc1ccc(C2C(C=O)C(N3CCN(C)CC3)=Nc3nc4ccccc4n32)cc1 (centres undefined) ?
Response given: No

Challenge: N#Cc1cccc(C2ON=C(c3ccc([N+](=O)[O-])cc3)N2C23CC4CC(CC(C4)C2)C3)c1 (centres undefined) ?
Response given: No

Challenge: `COc1cccc(/C=C2/Sc3scc(-c4ccccc4)[n+]3C2=O)c1O` ?
Response given: No

Challenge: CCOC(=O)C1(C/C=C\CBr)CCCCCCCCCCC1=O (centres undefined) ?
Response given: No

Challenge: `O=C1c2ccccc2C(=O)c2c(Nc3cc4c5c(ccc6c7ccc8c9c(cc(Nc%10cccc%11c%10C(=O)c%10ccccc%10C%11=O)c(c3c56)c97)-c3ccccc3C8=O)C(=O)c3ccccc3-4)cccc21` ?
Response given: No

Challenge: `O=C(c1ccccc1)c1c(-c2ccccc2)n(-c2ccccc2)[nH]c(=O)c1=O` ?
Response given: No

====

Recorded GI50 for the following molecules
Test system: CCRF-CEM
Assay: NCI tumour cell line growth inhibition, 48 h
Active and inactive are the calls of the source. No stated cut-off is given here; in the data, active = GI50 up to about 1.1 µM and inactive = higher.

{"molecule": "N#Cc1ccc(Oc2nc3ccc(C(F)(F)F)cc3nc2-c2ccccc2)cc1", "GI50": "20.4 µM (inactive)"}

# context switch: different molecule, same GI50
Challenge: For the molecule `O=C(Nc1ccccc1-c1n[nH]c(S)nc1=O)C(F)(F)F` , what GI50 is on record?
Response given: > 100 µM (inactive)

====

System: M14
Test: NCI tumour cell line growth inhibition, 48 h
Activity calls are given as the source filed them. Cut-off read from the data, not from the text of the source: active = GI50 up to about 1.1 µM and inactive = higher.
measurement.label: GI50

{"compound": "O=C(c1ccccc1)c1c(-c2ccccc2)n(-c2ccccc2)[nH]c(=O)c1=O", "GI50": "> 100 µM (inactive)"}
{"compound": "COc1ccc(-c2oc3cc(OC)ccc3c(=O)c2O)cc1", "GI50": "> 25.5 µM (inactive)"}

Challenge: For the compound COc1ccc(C2CC(C)=Nc3c(O)nc(S)nc3N2)cc1 (stereo unspecified) , what GI50 is on record?
Response given: 19.6 µM (inactive)

Challenge: `Cc1cccc(NC(=O)C(=O)Cc2nc3ccccc3nc2O)c1C` ?
Response given: > 100 µM (inactive)

====

System: SK-MEL-2
Assay: NCI tumour cell line growth inhibition, 48 h
The source made the active and inactive calls. No stated cut-off is given here; in the data, active = GI50 up to about 1.1 µM and inactive = higher.
Please answer using one outcome listed in TRUE for active, FALSE for inactive

{"molecule": "Oc1c(O)c(Cc2ccccc2)c(Cc2ccccc2)c(Cc2ccccc2)c1Cc1ccccc1", "category.label": "FALSE"}
{"molecule": "C[n+]1cn(-c2nc3ccccc3nc2[N-]S(=O)(=O)c2ccccc2)c2ccccc21", "category.label": "FALSE"}
{"molecule": "COc1ccc(C2CC(C)=Nc3c(O)nc(S)nc3N2)cc1 (stereo not given)", "category.label": "FALSE"}
{"molecule": "O=C(N/N=C/c1ccc(O)cc1)NNCCO", "category.label": "FALSE"}
{"molecule": "CN1CCOC1(C)CO (stereo not given)", "category.label": "FALSE"}
{"molecule": "Cc1ccc(NC(=O)SCCC(=O)O)cc1", "category.label": "FALSE"}

Challenge: Hello, I am checking results. What call was entered for COc1cc([C@@H]2OC[C@@H]3C(c4cc(OC)c5c(c4)OCO5)OC[C@@H]32)cc(OC)c1OC (stereo not given in full) ?
Response given: FALSE

Challenge: `Cc1nc2nnc(CCCCCCCCc3nnc4nc(C)[nH]n34)n2[nH]1` ?
Response given: FALSE

Challenge: COc1ccc(/C=C2\CCCC(CN(C)C)C2=O)cc1 (stereo not given) ?
Response given: FALSE

Challenge: CC(C)=CC1CC(=[N+]=[N-])C(=O)C1(C)C (stereo not given) ?
Response given: FALSE

====

Test system: A549
Assay: NCI tumour cell line growth inhibition, 48 h
The source made the active and inactive calls. Rule as the data show it: active = GI50 up to about 1.1 µM and inactive = higher.
Recorded GI50 for the following molecules

Example cases with answers are listed next.
{"molecule": "CCOC(=O)c1c(SC(=O)c2cc(OC)c(OC)c(OC)c2)n(-c2ccccc2)c(=S)n(-c2ccccc2)c1=O", "GI50": "> 100 µM (inactive)"}
{"molecule": "COC(=O)C1=NN2c3ccccc3CN([C@@H](C)c3ccccc3)C(=O)[C@H]2[C@@H]1C", "GI50": "29.4 µM (inactive)"}
{"molecule": "Oc1ccc2ccccc2c1Cc1c(O)ccc2ccccc12", "GI50": "18.1 µM (inactive)"}
{"molecule": "O=C(C1OC1c1ccc([N+](=O)[O-])cc1)C12CC3CC(CC(C3)C1)C2 (stereo not given)", "GI50": "25.7 µM (inactive)"}
{"molecule": "Cc1nc(C)c(C(=O)NNC(=O)c2ccccc2)cc1C(=O)NNC(=O)c1ccccc1", "GI50": "> 100 µM (inactive)"}

Challenge: For the molecule `Nc1ccc(Cn2ccc3c4c(N)nc(N)nc4ccc32)cc1` , what GI50 is on record?
Response given: < 0.01 µM (active)

Challenge: `CN(CCNC(=O)c1c[nH]c2c1Cc1ccccc1-2)CCNC(=O)c1c[nH]c2c1Cc1ccccc1-2` ?
Response given: 43.2 µM (inactive)

Challenge: CC(C)C1OC(=O)C=C1Sc1ccccc1 (stereo not given) ?
Response given: > 100 µM (inactive)

Challenge: `Cc1ccc(S(=O)(=O)N(CCN)c2cc3c4c(c2)Oc2cccc5c2C4c2c(cccc2O3)O5)cc1` ?
Response given: 25.7 µM (inactive)

Challenge: COC(=O)C1=C(\O)C[C@@]2(C)CC[C@@H](C(=O)OC)C2C/C=C\1C(=O)OC (stereo not given in full) ?
Response given: 87.7 µM (inactive)

Challenge: `COC(=O)c1c(O)ccc2c1c1c(n2Cc2cc(OC)cc(OC)c2)C(=O)c2ccccc2C1` ?
Response given: 36.2 µM (inactive)

Challenge: `O=c1ccc2ccccc2c2ccccc12` ?
Response given: 13.8 µM (inactive)

Challenge: O=C1C(Cl)C(c2ccc(O)cc2)N1n1cnc2ccccc2c1=O (stereo not given) ?
Response given: > 100 µM (inactive)

Challenge: `C[C@@H](Br)[C@@H]1CC[C@H]2c3[nH]c4ccccc4c3CCN2C1` ?
Response given: 34.4 µM (inactive)

Challenge: CCCCCCCCCCCCCCCCCCOCC(COP(=O)([O-])OCC[N+](C)(C)C)OC (stereo not given) ?
Response given: 21.4 µM (inactive)

Challenge: `CCOC(=O)/N=C(\N)SCc1ccccc1` ?
Response given: > 100 µM (inactive)

====

Recorded GI50 for the following molecules
System: M19-MEL
Assay: NCI tumour cell line growth inhibition, 48 h
Active and inactive are the calls of the source. Cut-off read from the data, not from the text of the source: active = GI50 up to about 1.1 µM and inactive = higher.

{"molecule": "CC1CCC2(CC1)NN=c1s/c(=C\\c3ccc(O)cc3)c(=O)n1N2 (stereo not given)", "measurement.label": "GI50", "reading": "> 100 µM (inactive)"}
{"molecule": "CCOC(=O)[C@@]12C(C)=CC(=O)O[C@]1(C)C[C@H]2C#N", "measurement.label": "GI50", "reading": "> 100 µM (inactive)"}
{"molecule": "CSc1nc2c(ncn2C2OC(CO)C(O)C(O)C2O)c(=O)n1C (stereo not given)", "measurement.label": "GI50", "reading": "> 100 µM (inactive)"}

Challenge: Look up GI50 with M19-MEL for this molecule: `O=C(c1ccccc1)c1nnn(Cc2cccc(Cl)c2)c1C(=O)c1ccccc1`
Response given: > 100 µM (inactive)
